# Target under test: human recombinant cathepsin K (Homo sapiens)
# Sequence (P43235 115-329): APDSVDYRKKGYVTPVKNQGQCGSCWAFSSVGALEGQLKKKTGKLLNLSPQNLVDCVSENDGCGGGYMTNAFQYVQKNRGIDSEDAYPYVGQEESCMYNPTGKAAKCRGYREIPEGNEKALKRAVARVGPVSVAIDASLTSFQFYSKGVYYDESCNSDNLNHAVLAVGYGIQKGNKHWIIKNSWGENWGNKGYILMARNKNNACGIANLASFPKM
# Assay overview: cathepsin K inhibitory activity (fluorogenic substrate Z-Leu-Arg-MCA)
# Settings: room temperature, enzyme 1 nM, substrate 5 μM, pH 5.5
Criterion: IC50 strictly less than 0.04 µM. Met: Condition met. Not met: Condition not met.

In [3]: df
Out[3]:
                                   molecule        label_value
0  N#CC(NC(=O)[C@@H]1CCCN1C(=O)OCc1ccccc1)c1ccc2c(c1)OCO2 (mixture of isomers)      Condition met
1  Cc1ccccc1C(C#N)NC(=O)[C@@H]1CCCN1C(=O)OCc1ccccc1 (mixture of isomers)      Condition met
2  N#CC(NC(=O)[C@@H]1CCCN1C(=O)CCC1CCCC1)c1ccc2c(c1)OCO2 (mixture of isomers)      Condition met
3  COc1ccc(C(C#N)NC(=O)[C@@H]2[C@H](C)CCN2C(=O)OCc2ccccc2)cc1OC (mixture of isomers)  Condition not met
4  COc1cc(C(C#N)NC(=O)[C@@H]2CCCN2C(=O)OCc2ccccc2)ccc1OCc1ccccc1 (mixture of isomers)  Condition not met
5  COc1ccc(C(C#N)NC(=O)[C@@H]2CCCN2C(=O)Cc2cccc(Br)c2)cc1OC (some centres unmarked)      Condition met
6  N#C[C@H](NC(=O)[C@@H]1CCCN1C(=O)OCc1ccccc1)c1ccccc1  Condition not met
7  COc1ccc(C(C#N)NC(=O)[C@@H]2CCCN2C(=S)NCc2ccco2)cc1OC (mixture of isomers)  Condition not met
